Recorded pIC50 values for a group of compounds are listed next.
Biological target: Histidine tagged HIF-2α protein containing PAS-B domain (240-350) (Homo sapiens, UniProt Q99814)
Construct: Histidine tagged HIF-2α protein containing PAS-B domain (240-350) was prepared and purified in house; made in house
Sequence (Q99814 240-350): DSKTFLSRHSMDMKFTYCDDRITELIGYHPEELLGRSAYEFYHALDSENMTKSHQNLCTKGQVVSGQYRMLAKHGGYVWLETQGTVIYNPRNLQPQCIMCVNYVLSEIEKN
Experiment: HIF-2α Scintillation Proximity Assay (SPA)
Assay type: binding
Conditions: 50 nM HIF-2α protein, 25 nM radiolabeled tracer; read-out: HIF-2α Scintillation Proximity Assay
pIC50: −log10 of the molar value.
Readout Name: pIC50

O=S(=O)(c1ccc(Oc2cccc(C(F)(F)F)c2)c2cn[nH]c12)C(F)(F)F | < 5.00
O=S(=O)(c1ccc(Oc2cncc(Cl)c2)c2cn[nH]c12)C(F)(F)F | 5.00 to 6.00
N#Cc1cccc(Oc2ccc(S(=O)(=O)C(F)(F)F)c3[nH]ncc23)c1 | > 6.00
O=S(=O)(c1ccc(NCc2ccc(F)cc2)c2cn[nH]c12)C(F)(F)F | < 5.00
N#Cc1cc(Cl)cc(Oc2ccc(S(=O)(=O)C(F)(F)F)c3[nH]ncc23)c1 | > 6.00
CS(=O)(=O)c1ccc(Oc2cc(F)cc(C#N)c2)c2c(CO)n[nH]c12 | < 5.00
N#Cc1cc(F)cc(Oc2ccc(S(=O)(=O)C(F)(F)F)c3[nH]nc(C#N)c23)c1 | < 5.00
O=S(=O)(c1ccc(Oc2ccc(Cl)c(F)c2)c2cn[nH]c12)C(F)(F)F | < 5.00

----------
Target: HIF-2α (Homo sapiens, UniProt Q99814)
Construct: endogenous in cells; host or cells: 786-O cells (ATCC CRL-1932) stably carrying the Cignal Lenti HIF Luc Reporter
Sequence (Q99814 whole entry): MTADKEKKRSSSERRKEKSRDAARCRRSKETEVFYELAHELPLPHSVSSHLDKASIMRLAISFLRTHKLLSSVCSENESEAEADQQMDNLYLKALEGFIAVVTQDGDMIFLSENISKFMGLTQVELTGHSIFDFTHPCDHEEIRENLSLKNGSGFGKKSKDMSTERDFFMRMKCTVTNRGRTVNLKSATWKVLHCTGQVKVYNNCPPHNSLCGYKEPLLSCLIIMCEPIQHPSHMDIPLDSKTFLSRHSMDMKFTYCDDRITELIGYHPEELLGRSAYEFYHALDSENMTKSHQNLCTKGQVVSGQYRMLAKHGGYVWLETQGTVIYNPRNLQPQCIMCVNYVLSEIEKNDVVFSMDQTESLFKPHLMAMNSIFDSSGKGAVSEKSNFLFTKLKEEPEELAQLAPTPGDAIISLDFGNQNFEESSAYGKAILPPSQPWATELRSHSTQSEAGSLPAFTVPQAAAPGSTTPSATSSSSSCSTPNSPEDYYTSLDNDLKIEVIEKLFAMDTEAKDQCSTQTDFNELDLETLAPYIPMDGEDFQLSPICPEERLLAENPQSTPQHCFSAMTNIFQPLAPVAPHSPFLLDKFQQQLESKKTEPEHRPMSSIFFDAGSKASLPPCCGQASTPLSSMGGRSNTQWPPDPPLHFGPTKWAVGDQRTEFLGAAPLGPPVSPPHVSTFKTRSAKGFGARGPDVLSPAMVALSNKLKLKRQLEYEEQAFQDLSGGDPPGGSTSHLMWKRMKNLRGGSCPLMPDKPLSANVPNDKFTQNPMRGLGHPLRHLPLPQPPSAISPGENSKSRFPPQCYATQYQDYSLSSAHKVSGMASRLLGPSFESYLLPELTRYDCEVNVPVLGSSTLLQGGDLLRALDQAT
Test: HIF-2α Luciferase Reporter Assay
Format: cell-based
Conditions: HIF-Luc-786-0 cells, 20 hours incubation, luciferase activity; read-out: HIF-2α Luciferase Assay
Catalogue of IC50 readings, one per entry.
Readout Name: IC50

CS(=O)(=O)c1ccc(Nc2cc(F)cc(C#N)c2)c2c(F)n[nH]c12 | 1 to 10 µM
N#Cc1cc(F)cc(Nc2ccc(C(F)(F)F)c3[nH]ncc23)c1 | 1 to 10 µM
O=S(=O)(c1ccc(Oc2ccc(Cl)cc2)c2cn[nH]c12)C(F)(F)F | 1 to 10 µM
N#Cc1ccc(Cl)c(Oc2ccc(S(=O)(=O)C(F)(F)F)c3[nH]ncc23)c1 | 1 to 10 µM
Cc1cc(C#N)cc(Oc2ccc(S(=O)(=O)C(F)(F)F)c3[nH]ncc23)c1 | 1 to 10 µM
O=S(=O)(c1ccc(NCc2ccc(F)cc2)c2cn[nH]c12)C(F)(F)F | > 10 µM
N#Cc1ccc(Oc2ccc(S(=O)(=O)C(F)(F)F)c3[nH]ncc23)cc1F | > 10 µM
O=S(=O)(c1ccc(Nc2cc(F)cc(Cl)c2)c2cn[nH]c12)C(F)(F)F | > 10 µM
N#Cc1cc(F)cc(Oc2ccc(S(=O)(=O)C(F)F)c3[nH]nc(I)c23)c1 | 1 to 10 µM

----------
Biological target: Histidine tagged HIF-2α protein containing PAS-B domain (240-350) (Homo sapiens)
Construct: Histidine tagged HIF-2α protein containing PAS-B domain (240-350) was prepared and purified in house; made in house
Assay: HIF-2α Scintillation Proximity Assay (SPA)
Assay type: binding
Readout Name: IC50

N#Cc1cc(F)cc(Oc2ccc(S(=O)(=O)C(F)(F)F)c3[nH]ncc23)c1 [Example 15] | < 1000 nM
